- testName: gradient 5% acetonitrile 3 min, to 50% in 2 min, to 85% in 15 min, held 3 min, 100 µL/min
- conditionInfo: column: Zorbax Extend-C18 2.1 x 50 mm; eluents: water / acetonitrile, 0.1% formic acid
measureName: RP-LC retention time
Give the value; after it, write the unit.

compound: CC(C)[Si]1(C(C)C)OCC2OC(n3cnc4c(N)ncnc43)C(N)C2O[Si](C(C)C)(C(C)C)O1 (centres undefined)
measureName: RP-LC retention time
reading: 828 s
--
compound: CSc1cccc(NC(=O)CN2C(=O)CCn3nc(-c4cn(C)c5ccccc45)cc32)c1
measureName: RP-LC retention time
reading: 902 s
--
compound: CCc1nc2cc(-c3noc(CNC(=O)c4ccccc4)n3)ccc2o1
measureName: RP-LC retention time
reading: 821 s

Consider CCc1nc2c(c(=O)n1CC(=O)NCc1ccccc1)CN(Cc1ccccc1)CC2 . Its measured RP-LC retention time is 629 s

Measured RP-LC retention time, CNC(=O)C1CCN(Cc2noc(-c3ccc(F)cc3)n2)CC1 : 581 s

Entry Cc1nn(-c2ccc(F)cc2)c2nc(N3CCCC(C(=O)NC4CCCCCC4)C3)sc12 (centres undefined) ; RP-LC retention time = 1240 s

Lab note: measured RP-LC retention time of COc1ccc(C2Cn3nnc(-c4nc(-c5cccc(Br)c5)no4)c3CO2)cc1 (centres undefined) was 1170 s

Briefly, RP-LC retention time measured for CCn1ccc(C(=O)N2CCN(C(=O)N3C[C@H]4C[C@H](C3)[C@H]3CCCC(=O)N3C4)CC2)n1 : 609 s

---

- testName: gradient 5% acetonitrile 3 min, to 50% in 2 min, to 85% in 15 min, held 3 min, 100 µL/min
- conditionInfo: column: Zorbax Extend-C18 2.1 x 50 mm; eluents: water / acetonitrile, 0.1% formic acid
Label rule met when RP-LC retention time is at or above 800 s; anything below gets rule not met.

Please review the following examples before continuing.
molecule: O=C(NCc1ccc(F)cc1)C1CCCN(c2ncnc3c2nc2n3CCCCC2)C1 (stereo not given)
assignedClass: rule not met
//
molecule: Cc1cccc(N2CCN(C(=O)COc3ccc(NC(=O)C4CC4)cn3)CC2)c1
assignedClass: rule not met
//
molecule: Cc1cccc(NC(=O)N2CCc3nc[nH]c3C2)c1C
assignedClass: rule not met
//
molecule: O=C(NC1CCCN(c2cc(-c3ccncc3)[nH]n2)C1)c1cccc(F)c1 (stereo not given)
assignedClass: rule not met
//
molecule: COc1ccc(-c2nc3cnccn3c2Nc2ccc(C)cc2Br)cc1
assignedClass: rule met

Could you now look at the following molecule, please?
## Input Has CCCNC(=O)c1cc2n(n1)CC(C)(C(=O)NCc1ccc(F)cc1)N(C)C2=O (stereo not given) a recorded RP-LC retention time greater than or equal to 800 s?
## Output rule not met

---

- testName: gradient 5% acetonitrile 3 min, to 50% in 2 min, to 85% in 15 min, held 3 min, 100 µL/min
- conditionInfo: column: Zorbax Extend-C18 2.1 x 50 mm; eluents: water / acetonitrile, 0.1% formic acid
measureName: RP-LC retention time (s)
State just the number; it will be interpreted in s.

Consider the following illustrative entries.
structureNotation: CCN1CCCn2cc(S(=O)(=O)N3CCN(c4ccccc4Cl)CC3)cc2C1=O
reading: 912
//
structureNotation: COCc1cc(=O)n(CC(=O)Nc2cc(F)ccc2F)c(N2CCOCC2)n1
reading: 838
//
structureNotation: CCOC(=O)c1nc(NCCc2ccc(C)cc2)c2c(CC)noc2n1
reading: 1080
//
structureNotation: O=C(Nc1ccc2c(c1)OCCO2)c1cnc(-c2ccc(F)cc2)nc1-c1ccncc1
reading: 831

# ---- query molecule ----
For record O=C(OCCc1ccccn1)c1cn(-c2ccccc2)c(=O)c2ccccc12 the listed RP-LC retention time is 696

Just for reference, the METLIN SMRT retention time set (Domingo-Almenara et al. 2019) is where these values come from.
